The following compounds have recorded IC50 on UniProtKB P08473.
Sequence (P08473 whole entry): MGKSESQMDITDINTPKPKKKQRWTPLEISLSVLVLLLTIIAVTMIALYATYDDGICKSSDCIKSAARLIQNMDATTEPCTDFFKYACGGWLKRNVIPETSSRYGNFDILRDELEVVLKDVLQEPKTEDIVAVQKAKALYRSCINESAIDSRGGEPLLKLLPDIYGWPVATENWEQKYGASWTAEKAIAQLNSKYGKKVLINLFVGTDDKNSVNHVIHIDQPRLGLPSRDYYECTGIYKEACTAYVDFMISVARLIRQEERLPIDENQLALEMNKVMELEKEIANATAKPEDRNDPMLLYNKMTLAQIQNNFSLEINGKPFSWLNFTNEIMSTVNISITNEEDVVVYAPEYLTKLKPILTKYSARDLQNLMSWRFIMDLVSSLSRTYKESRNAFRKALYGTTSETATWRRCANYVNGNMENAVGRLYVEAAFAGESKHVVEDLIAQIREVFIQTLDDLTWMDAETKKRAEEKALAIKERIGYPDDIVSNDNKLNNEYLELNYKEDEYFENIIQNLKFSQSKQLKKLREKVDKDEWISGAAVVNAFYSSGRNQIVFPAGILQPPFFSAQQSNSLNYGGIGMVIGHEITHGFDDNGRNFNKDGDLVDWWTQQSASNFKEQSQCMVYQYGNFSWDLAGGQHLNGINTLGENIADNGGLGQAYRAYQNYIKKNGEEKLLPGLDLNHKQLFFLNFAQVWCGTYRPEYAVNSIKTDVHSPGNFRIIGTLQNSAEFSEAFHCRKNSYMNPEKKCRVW
Please give the number followed by its unit.

Exam item: Indicate the recorded IC50 value for this compound: O=C(NCCc1cccc2ccccc12)[C@H](CC#Cc1ccc(F)cc1F)NCP(=O)(O)O
Marked response: 6.2 µM

Exam item: Return IC50 for the following compound: CC(C)C[C@H](NC(=O)[C@H](CC#Cc1ccc(F)cc1F)NCP(=O)(O)O)C(=O)O
Marked response: 6.7 µM

Exam item: Report measured IC50; entry is O=C(O)[C@H](Cc1ccc2ccccc2c1)NC(=O)[C@H](CC#Cc1ccccc1F)NCP(=O)(O)O
Marked response: 1.3 µM

Exam item: Name the recorded IC50 of the compound listed here: O=C(O)[C@H](Cc1ccc(-c2ccccc2)cc1)NC(=O)[C@H](CC#Cc1ccccc1F)NCP(=O)(O)O
Marked response: 0.25 µM

Exam item: State its IC50 for this compound: O=C(NCCc1ccc(-c2ccccc2)cc1)[C@H](CC#Cc1ccccc1F)NCP(=O)(O)O
Marked response: 6.5 µM

Exam item: Report IC50, nothing else, for this compound: CC(C)CCNC(=O)[C@H](CC#Cc1ccc(F)cc1F)NCP(=O)(O)O
Marked response: 23 µM

Exam item: Recall and state the measured IC50 for O=C(NCCc1ccc(-c2ccccc2)cc1)[C@H](CC#Cc1ccc(F)cc1F)NCP(=O)(O)O .
Marked response: 2.5 µM

Exam item: Item O=P(O)(O)C(CCc1cccc2ccccc12)N[C@@H](Cc1ccc(-c2ccccc2)cc1)c1nnn[nH]1 (some centres not stated) : provide IC50
Marked response: 0.005 µM

Exam item: Please report the measured IC50 for O=C(NCCc1ccc2ccccc2c1)[C@H](CC#Cc1ccc(F)cc1F)NCP(=O)(O)O
Marked response: 7 µM

Exam item: Find the measured IC50 of O=P(O)(O)CN[C@@H](CC#Cc1ccccc1)c1nn[nH]n1 and report it.
Marked response: 0.17 µM

Exam item: Please look at this compound and report its IC50: O=C(O)[C@H](Cc1ccccc1)NC(=O)[C@H](CC#Cc1ccccc1F)NCP(=O)(O)O
Marked response: 1.2 µM

Exam item: Provide one value: measured IC50 of CC(C)C[C@H](NC(=O)[C@H](CC#Cc1ccc(F)cc1F)NCP(=O)(O)O)C(=O)N[C@@H](C)C(=O)O
Marked response: 5.8 µM

----------
# SYSTEM TESTED: Endothelin-converting enzyme 1 (Homo sapiens)
# Sequence (P42892 whole entry): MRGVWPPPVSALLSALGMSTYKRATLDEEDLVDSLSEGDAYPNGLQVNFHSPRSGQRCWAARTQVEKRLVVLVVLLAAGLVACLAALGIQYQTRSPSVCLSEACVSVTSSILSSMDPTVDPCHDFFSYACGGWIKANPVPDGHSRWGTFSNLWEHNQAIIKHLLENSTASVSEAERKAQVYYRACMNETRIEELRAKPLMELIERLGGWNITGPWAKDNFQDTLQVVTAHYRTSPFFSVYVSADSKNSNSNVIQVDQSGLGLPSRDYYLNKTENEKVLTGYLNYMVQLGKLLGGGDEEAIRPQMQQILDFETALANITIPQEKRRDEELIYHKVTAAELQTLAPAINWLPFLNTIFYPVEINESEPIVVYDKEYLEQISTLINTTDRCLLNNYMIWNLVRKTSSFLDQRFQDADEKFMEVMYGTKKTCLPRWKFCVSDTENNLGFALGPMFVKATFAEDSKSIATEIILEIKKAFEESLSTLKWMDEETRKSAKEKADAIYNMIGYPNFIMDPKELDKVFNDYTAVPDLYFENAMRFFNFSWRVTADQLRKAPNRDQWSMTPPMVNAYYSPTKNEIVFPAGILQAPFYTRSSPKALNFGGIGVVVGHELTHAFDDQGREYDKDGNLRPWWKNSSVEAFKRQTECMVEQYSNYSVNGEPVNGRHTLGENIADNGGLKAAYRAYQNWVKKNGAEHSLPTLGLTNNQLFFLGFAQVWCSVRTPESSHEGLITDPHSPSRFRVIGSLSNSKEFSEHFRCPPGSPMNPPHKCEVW
# TEST: Inhibitory activity was assessed on CHO cells expressing recombinant human Endothelin-converting enzyme 1 (ECE-1).
PARAMETER: IC50
Record the result as a number with its unit.

Exam item: Look up IC50 of COc1ccc(CCNC(=O)[C@H](CC#Cc2ccc(F)cc2F)NCP(=O)(O)O)cc1OC and report it.
Marked response: 160 nM

Exam item: Answer with the recorded IC50 of CC(C)[C@H](NC(=O)[C@H](CC#Cc1ccccc1F)NCP(=O)(O)O)C(=O)O only.
Marked response: 110 nM

Exam item: Identify measured IC50 associated with O=P(O)(O)CN[C@@H](CC#Cc1ccccc1F)c1nnn[nH]1
Marked response: 150 nM

Exam item: Identify IC50 associated with the compound O=C(NCCc1c[nH]c2ccccc12)[C@H](CC#Cc1ccccc1F)NCP(=O)(O)O
Marked response: 76 nM
